- Test system: P-4E-BP1 (T37/46)
- Method description: Cell based AlphaLISA assay, inhibition of P-4E-BP1 (T37/46) in MDA-MB-468 cells (mTORC1 substrate)
- Test context: Homo sapiens, 4 h, AlphaLisa, two to four hours at 37° C., read-out: pIC50 for Inhibition of mTORC1 and mTORC2 Substrate Phosphorylation P-4E-BP1-(T37/46) (converted)
Here, each record is paired with measured IC50 data.

Form field: reported IC50 of CO[C@H]1C[C@@H]2CC[C@@H](C)[C@@](O)(O2)C(=O)C(=O)N2CCCCC2C(=O)O[C@H]([C@H](C)C[C@@H]2CC[C@@H](OC(=O)NCc3cnc(N4CCN(C(=O)CN(C)CC(=O)NCCOCCOCCC(=O)NCCCCn5nc(-c6ccc7oc(N)nc7c6)c6c(N)ncnc65)CC4)nc3)[C@H](OC)C2)C[C@@H](OC)[C@H](C)/C=C(\C)[C@@H](O)[C@@H](OC)C(=O)[C@H](C)C[C@H](C)/C=C/C=C/C=C/1C (stereo partly drawn) < 3.16 nM

Form field: reported IC50 of "CO[C@H]1C[C@@H]2CC[C@@H](C)[C@@](O)(O2)C(=O)C(=O)N2CCCC[C@H]2C(=O)O[C@H]([C@H](C)C[C@@H]2CC[C@@H](OC(=O)NCc3cnc(N4CCN(C(=O)CCOCCN5CCN(C(=O)CCC(=O)NCCCCn6nc(-c7cnc8[nH]ccc8c7)c7c(N)ncnc76)CC5)CC4)nc3)[C@H](OC)C2)CC(=O)[C@H](C)/C=C(\C)[C@@H](O)[C@@H](OC)C(=O)[C@H](C)C[C@H](C)/C=C/C=C/C=C/1C" < 3.16 nM

Form field: reported IC50 of "CO[C@H]1C[C@@H]2CC[C@@H](C)[C@@](O)(O2)C(=O)C(=O)N2CCCC[C@H]2C(=O)O[C@H]([C@H](C)C[C@@H]2CC[C@@H](OC(=O)NCc3cnc(N4CCN(CCOCCOCCOCCOCCC(=O)NCCCCn5nc(-c6ccc7oc(N)nc7c6)c6c(N)ncnc65)CC4)nc3)[C@H](OC)C2)C[C@@H](OC)[C@H](C)/C=C(\C)[C@@H](O)[C@@H](OC)C(=O)[C@H](C)C[C@H](C)/C=C/C=C/C=C/1C" > 1000 nM
